Exercise: for every item that follows, state its recorded AC50.
tested target: UniProtKB P21731
Sequence (P21731 whole entry): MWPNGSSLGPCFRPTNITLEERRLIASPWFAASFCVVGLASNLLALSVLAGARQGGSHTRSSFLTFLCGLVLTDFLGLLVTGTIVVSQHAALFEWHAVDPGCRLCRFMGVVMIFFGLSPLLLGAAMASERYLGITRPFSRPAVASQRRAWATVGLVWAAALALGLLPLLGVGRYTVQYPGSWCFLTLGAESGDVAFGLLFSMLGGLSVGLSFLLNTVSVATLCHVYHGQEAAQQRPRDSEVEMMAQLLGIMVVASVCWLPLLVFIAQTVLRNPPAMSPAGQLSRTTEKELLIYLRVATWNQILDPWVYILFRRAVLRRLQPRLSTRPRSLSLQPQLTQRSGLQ

CCc1ccc(CCOc2ccc(CC3SC(=O)NC3=O)cc2)nc1 (centres undefined) [PIOGLITAZONE]	> 30 µM
CC(=O)N(CC(O)CO)c1c(I)c(C(=O)NCC(O)CO)c(I)c(C(=O)NCC(O)CO)c1I (centres undefined) [IOHEXOL]	> 30 µM
Cc1ccc(-c2nc3ccc(C)cn3c2CC(=O)N(C)C)cc1 [ZOLPIDEM]	> 30 µM
NC1=NC(=O)C(c2ccccc2)O1 (centres undefined) [PEMOLINE]	> 30 µM
CN1CC[C@]23CCCC[C@H]2[C@H]1Cc1ccc(O)cc13 [LEVORPHANOL]	> 10 µM

Dear reader, for each entry below, please note its AC50.
1. C[C@]12CCC(=O)C=C1CC[C@@H]1[C@@H]2CC[C@@]2(C)[C@H]1CC[C@]2(C)O [METHYLTESTOSTERONE]
2. CC(C)NCC1CCc2cc(CO)c([N+](=O)[O-])cc2N1 (centres undefined) [OXAMNIQUINE]

Output:
> 30 µM
> 10 µM

Reference source: ChEMBL document CHEMBL5291721
